// provenance: the supplement of paper PMC10065799

target: Grb2 SH2 (UniProt P62993); assay: SH2 binding enrichment of the phosphorylated peptide, bacterial display (enrichment ratio); higher = better substrate or ligand; peptides without Tyr show the background;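 further: peptide library displayed on the E. coli surface as eCPX fusions, selected cells deep-sequenced, score is each peptide's frequency after selection divided by its frequency in the input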
Sequence (P62993 whole entry, looked up, the tested form may be a part): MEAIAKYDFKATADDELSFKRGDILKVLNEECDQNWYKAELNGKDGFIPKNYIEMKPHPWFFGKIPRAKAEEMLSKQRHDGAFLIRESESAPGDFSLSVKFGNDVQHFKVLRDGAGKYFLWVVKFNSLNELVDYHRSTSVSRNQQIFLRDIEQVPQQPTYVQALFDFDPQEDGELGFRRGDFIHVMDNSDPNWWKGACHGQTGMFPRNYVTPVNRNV
Parameter: SH2 binding enrichment. Scope: all listed entries.
MEASUREMENT_LABEL: SH2 binding enrichment

KPPFSYNALIM [FOXG1_Y186] | 0.726
SQETFYRVSNM [ABCD1_Y181_Q178E_YF] | 0.836
TAPYNYSYIFK [RAB14_Y8] | 1.4
LEPHIYAVADV [MYO9A_Y216] | 0.979
APQYTYAQGGQ [FLNA_Y1763] | 0.778
MVIPNYSSRTE [UROC1_Y185] | 0.711
FADGVYLALEE [DUOX2_Y70_Q71L_YF] | 0.849
HNVPICEGFAL [ACTC1_Y168_Y168C_YF] | 0.871
RISGVYKLPPD [ANGPTL7_Y145] | 1.02
QNAGDYYDLYG [PTPN11_Y62_T59A] | 0.897
GPKFGYDEIDN [ACOX1_Y232] | 0.845
RSFPSYFTSHV [NEFL_Y442_YF] | 0.888
GGTPLYMDRQG [AGXT_Y194] | 0.76
GVFSRYFTTFD [CLCA1_Y661_YF] | 0.891
QLCVSYPGGYT [PROS1_Y259_N258S] | 0.861
LGIDRYHAIVY [NPSR1_Y147_S143G] | 0.823
FGISGYLVDSV [MAP2K3_Y214] | 0.949
CCKNRYDKDKP [THAP1_Y14_G9C] | 1.01
KQQEIYQELTQ [CD209_Y239] | 1.14
FHKALYTVRSF [PDE6C_Y266_YF] | 0.784
ADYPDCKYRPR [SOX11_Y116_Y116C] | 0.833
NTFEKYWLFFQ [GATM_Y103_P105L_YF] | 0.975
IIRYNYLLDVL [FGFR4_Y237_S232I] | 1.34
SDGHEYIYVDP [PDGFRB_Y579] | 0.779
NTQRPHFKGGG [TYROBP_Y111_Y111H_YF] | 1.22
ASFSLYEPAKM [MKI67_Y340_P338S] | 1
RFLERYIFNRE [HLA-DPB1_Y57_YF] | 1.54
AAVDNYCRHNF [HLA-DRB1_Y107_T106N_YF] | 0.877
HLAQRYLIWEC [SCN5A_Y694_R689H] | 0.965
FSNVLYRPRGA [TMIGD2_Y197_YF] | 0.647
VMSMNYRVGAL [BCHE_Y174_V170M] | 0.719
PPLMLYNPTTY [EGFR_Y270] | 1.45
VDTAMYATMQR [TPO_Y55] | 0.878
KVKEQYQDVPM [PKP2_Y659] | 0.801
FDRREYSRFEK [ITGB7_Y758_YF] | 0.793
SYPREYGSQEG [RBM10_Y48] | 0.852
CTTIHYNFMFN [TP53_Y234_C238F_YF] | 0.975
ETDSEYVKLSK [C7orf57_Y70_A74S] | 1.1
GDKKAYVRLAP [RPL23A_Y137_E133D] | 0.831
PPGRSYSPCDY [TNS1_Y793_Y796C] | 1
AGITAYQSCLQ [ADGRA2_Y377] | 0.827
DMLTLYVNTAA [SMCHD1_Y403_Q400L] | 5.64
NQDRTYYERVR [SPEN_Y632_S635R] | 0.901
QVMDGYPIPIG [MMP14_Y353_M355I] | 0.826
KGKLIYLLRDS [NXPE1_Y350_G353R] | 2.45
YEEDSYSHVMA [FDPS_Y388_I391V] | 0.772
RSSGSYGGGGQ [HNRNPA1_Y341_P340S] | 0.777
NTGLEYIKFTW [HRH1_Y386_D385E] | 1.11
YENGEYIVRQG [PRKG1_Y247_I249V] | 32.9
ETESPYQELQG [TYROBP_Y91] | 0.635
LIPIKYKAMKK [MYD88_Y257] | 0.908
ALAHKYHGGGG [HBB_Y146] | 0.756
DDEESYENVPR [FCRL3_Y722_N721S] | 0.935
RFLRGYRQHAF [HLA-A_Y137_D140H_YF] | 0.636
ADKSAYLMGLN [MYH7_Y386] | 0.88
LGLTVYADCLA [ABCA4_Y2063] | 0.918
STAPSYGNPSS [CD19_Y378_G373S] | 0.744
